- target entity: Induced myeloid leukemia cell differentiation protein Mcl-1 (Homo sapiens)
- Sequence (Q07820 whole entry): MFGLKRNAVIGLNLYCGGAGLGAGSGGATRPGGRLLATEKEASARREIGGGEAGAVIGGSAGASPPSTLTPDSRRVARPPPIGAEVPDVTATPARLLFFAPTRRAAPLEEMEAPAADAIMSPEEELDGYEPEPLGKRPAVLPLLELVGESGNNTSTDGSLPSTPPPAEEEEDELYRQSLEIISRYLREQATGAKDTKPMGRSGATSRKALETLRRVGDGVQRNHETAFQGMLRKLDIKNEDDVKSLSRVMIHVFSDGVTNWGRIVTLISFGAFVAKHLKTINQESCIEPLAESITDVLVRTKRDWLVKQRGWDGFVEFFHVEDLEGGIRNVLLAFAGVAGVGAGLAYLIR
- protocol details: Inhibition of 5-FAM-Bid peptide binding to MCL-1 (unknown origin) by fluorescence polarization assay
pKi: −log10 of the molar value.
attribute measured: pKi

{"columns": ["smiles str", "target entity", "value observed"],
 "data": [
  ["COc1cccc(/C=C/C(=O)Nc2ccc(C(=O)NS(=O)(=O)c3ccc(NCCSc4ccccc4)c([N+](=O)[O-])c3)cc2)c1", "Induced myeloid leukemia cell differentiation protein Mcl-1 (Homo sapiens)", 6.10],
  ["O=C(/C=C/c1cccc(C(F)(F)F)c1)Nc1ccc(C(=O)NS(=O)(=O)c2ccc(NCCSc3ccccc3)c([N+](=O)[O-])c2)cc1", "Induced myeloid leukemia cell differentiation protein Mcl-1 (Homo sapiens)", 5.27],
  ["O=C(/C=C/c1ccccc1)Nc1ccc(C(=O)NS(=O)(=O)c2ccc(NCCSc3ccccc3)c([N+](=O)[O-])c2)cc1", "Induced myeloid leukemia cell differentiation protein Mcl-1 (Homo sapiens)", 5.80],
  ["O=C(/C=C/c1ccccc1Cl)Nc1ccc(C(=O)NS(=O)(=O)c2ccc(NCCSc3ccccc3)c([N+](=O)[O-])c2)cc1", "Induced myeloid leukemia cell differentiation protein Mcl-1 (Homo sapiens)", 4.85]
]}
